Tested on: SUM149
Experiment: percent difference in area under dose-response curve of relative cell number, RPMI vs HPLM; higher = drug relatively more effective in HPLM than RPMI (negative = less effective in HPLM)
Conditions: treatment time: 72 h; dose range: 10-point, 1 nM to 20 µM; media compared: RPMI vs HPLM
Classify by measured percent difference in area under dose-response curve: Condition met if it is equal to or exceeds -20%, Condition not met if it is smaller.

Worked examples, 5 compounds total:
compound=CC(C)C[C@@H](C(=O)N[C@H](C(=O)OC1CCCC1)c1ccccc1)[C@H](O)C(=O)NO target_entity=SUM149 label_class="Condition met"
compound=c1ccc2c(CCNc3ccc(Nc4ccncc4)cc3)c[nH]c2c1 target_entity=SUM149 label_class="Condition not met"
compound="C=CS(=O)(=O)NC1CCN(C(=O)CNc2cc(I)c(Cl)cc2OC)CC1 [KRas_G12C_inhibitor_9]" target_entity=SUM149 label_class="Condition met"
compound="S=c1nc[nH]c2nc[nH]c12 [6_Mercaptopurine]" target_entity=SUM149 label_class="Condition not met"
compound="CNC(=O)c1cc(Oc2ccc(NC(=O)Nc3ccc(Cl)c(C(F)(F)F)c3)cc2)ccn1 [Sorafenib]" target_entity=SUM149 label_class="Condition met"

Item CO[C@H]1/C=C\C=C(/C)C(=O)NC2=CC(=O)C(NCCN(C)C)=C(C[C@@H](C)C[C@H](OC)[C@H](O)[C@@H](C)/C=C(\C)[C@@H]1OC(N)=O)C2=O with percent difference in area under dose-response curve of -20% or above?
Condition not met

Is percent difference in area under dose-response curve for CC(=O)[C@]1(O)Cc2c(O)c3c(c(O)c2[C@@H](O[C@H]2C[C@H](N)[C@H](O)[C@H](C)O2)C1)C(=O)c1ccccc1C3=O [Idarubicin_HCl] at or above -20%?
Condition not met

Reported percent difference in area under dose-response curve reaches at least -20% for O=C(O)c1ccc2cc(-c3ccc(O)c(C45CC6CC(CC(C6)C4)C5)c3)ccc2c1 ?
Condition met

# bool: percent difference in area under dose-response curve of CC(=O)Nc1nc(C)c(-c2ccc(Cl)c(S(=O)(=O)NCCO)c2)s1 >= -20%
Condition met

Assess whether reported percent difference in area under dose-response curve for COc1ccc(C2=N[C@H](c3ccc(Cl)cc3)[C@H](c3ccc(Cl)cc3)N2C(=O)N2CCNC(=O)C2)c(OC(C)C)c1 [Nutlin3b] sits at -20% or higher.
Condition met

Identify whether the reported percent difference in area under dose-response curve of the following compound is -20% or greater: Cc1ccc([N+](=O)[O-])cc1S(=O)(=O)N(C)/N=C/c1cnc2ccc(Br)cn12
Condition met

Threshold query (percent difference in area under dose-response curve >= -20%) on CC(C)CC(=O)Nc1n[nH]c2c1CN(C(=O)C1CCN(C)CC1)C2(C)C
Condition met

Threshold query (percent difference in area under dose-response curve >= -20%) on Nc1ccn([C@@H]2C=C(CO)[C@@H](O)[C@H]2O)c(=O)n1 [Cyclopentenyl_cytosine]
Condition met

Evaluate COc1cc2nccc(Oc3ccc(NC(=O)Nc4cc(C)on4)c(Cl)c3)c2cc1OC [Tivozanib] : percent difference in area under dose-response curve at minimum -20%?
Condition met
